Biological target: Carbonic anhydrase 6 (Homo sapiens, UniProt P23280)
Sequence (P23280 whole entry): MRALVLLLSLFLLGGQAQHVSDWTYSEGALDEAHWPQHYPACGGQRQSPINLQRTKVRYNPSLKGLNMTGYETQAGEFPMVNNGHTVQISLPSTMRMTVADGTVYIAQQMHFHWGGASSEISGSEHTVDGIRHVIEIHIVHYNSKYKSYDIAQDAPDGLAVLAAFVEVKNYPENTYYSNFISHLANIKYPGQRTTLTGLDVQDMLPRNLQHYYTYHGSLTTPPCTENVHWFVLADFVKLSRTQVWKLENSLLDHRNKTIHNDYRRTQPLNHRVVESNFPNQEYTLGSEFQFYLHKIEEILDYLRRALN
attribute.measured: pKi
Reminder that pKi means the negative base-10 logarithm of the concentration expressed in mol/L.

Some entries whose results are on file:
>  <molecule>
CS(=O)(=O)Oc1ccc(-c2ccccc2)cc1 [Biphenyl-4-ylmethanesulfonate (5)]

>  <attribute.measured>
pKi

>  <reading>
3.79

$$$$
>  <molecule>
CS(=O)(=O)Oc1ccc(OS(C)(=O)=O)cc1 [1,4-Phenylene dimethanesulfonate (6)]

>  <attribute.measured>
pKi

>  <reading>
4.55

$$$$

Task item: What value of pKi has been recorded for this entry: Oc1ccc(-c2ccccc2)cc1 [4-Hydroxybiphenyl]
Reply: 4.07

Task item: Please do the same for CS(=O)(=O)Oc1ccccc1 [Phenylmethanesulfonate (4)] as well.
Reply: 3.98

Task item: Please do the same for COc1ccccc1O [1-Hydroxy-2-methoxybenzene] as well.
Reply: 3.66

Task item: Please do the same for CS(=O)(=O)Oc1ccccc1OS(C)(=O)=O [1,2-Phenylenedimethanesulfonate (13)] as well.
Reply: 3.50

---

Biological target: UniProtKB P22748
Sequence (P22748 whole entry): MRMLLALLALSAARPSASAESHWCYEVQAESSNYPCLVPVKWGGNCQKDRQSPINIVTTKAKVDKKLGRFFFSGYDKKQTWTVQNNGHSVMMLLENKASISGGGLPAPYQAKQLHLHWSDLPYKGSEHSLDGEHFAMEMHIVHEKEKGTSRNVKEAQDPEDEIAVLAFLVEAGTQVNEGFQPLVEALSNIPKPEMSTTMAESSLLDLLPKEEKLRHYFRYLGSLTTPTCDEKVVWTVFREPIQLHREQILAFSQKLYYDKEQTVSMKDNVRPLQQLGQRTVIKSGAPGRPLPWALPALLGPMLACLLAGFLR
Label Fulfilled when Ki < 20 µM; otherwise Not fulfilled.

>  <molecule>
Oc1ccc(-c2ccccc2)cc1 [4-Hydroxybiphenyl]

>  <answer.label>
Fulfilled

$$$$
>  <molecule>
CS(=O)(=O)Oc1ccc(OS(C)(=O)=O)cc1 [1,4-Phenylene dimethanesulfonate (6)]

>  <answer.label>
Fulfilled

$$$$
>  <molecule>
CS(=O)(=O)Oc1ccccc1 [Phenylmethanesulfonate (4)]

>  <answer.label>
Fulfilled

$$$$
>  <molecule>
CS(=O)(=O)Oc1ccc(-c2ccccc2)cc1 [Biphenyl-4-ylmethanesulfonate (5)]

>  <answer.label>
Not fulfilled

$$$$
>  <molecule>
COc1ccccc1O [1-Hydroxy-2-methoxybenzene]

>  <answer.label>
Fulfilled

$$$$

Task item: # check: Ki < 20 µM for COc1cc(C=O)ccc1OS(C)(=O)=O
Reply: Fulfilled

Task item: Please do the same for Oc1ccccc1 as well.
Reply: Fulfilled

Task item: Please do the same for CS(=O)(=O)Oc1ccccc1OS(C)(=O)=O [1,2-Phenylenedimethanesulfonate (13)] as well.
Reply: Not fulfilled

Provenance of the data: BindingDB's records for doi:10.3109/14756366.2011.637202
